A short record of IC50 observed with DPP-4 (Homo sapiens) follows.
Sequence (P27487 whole entry): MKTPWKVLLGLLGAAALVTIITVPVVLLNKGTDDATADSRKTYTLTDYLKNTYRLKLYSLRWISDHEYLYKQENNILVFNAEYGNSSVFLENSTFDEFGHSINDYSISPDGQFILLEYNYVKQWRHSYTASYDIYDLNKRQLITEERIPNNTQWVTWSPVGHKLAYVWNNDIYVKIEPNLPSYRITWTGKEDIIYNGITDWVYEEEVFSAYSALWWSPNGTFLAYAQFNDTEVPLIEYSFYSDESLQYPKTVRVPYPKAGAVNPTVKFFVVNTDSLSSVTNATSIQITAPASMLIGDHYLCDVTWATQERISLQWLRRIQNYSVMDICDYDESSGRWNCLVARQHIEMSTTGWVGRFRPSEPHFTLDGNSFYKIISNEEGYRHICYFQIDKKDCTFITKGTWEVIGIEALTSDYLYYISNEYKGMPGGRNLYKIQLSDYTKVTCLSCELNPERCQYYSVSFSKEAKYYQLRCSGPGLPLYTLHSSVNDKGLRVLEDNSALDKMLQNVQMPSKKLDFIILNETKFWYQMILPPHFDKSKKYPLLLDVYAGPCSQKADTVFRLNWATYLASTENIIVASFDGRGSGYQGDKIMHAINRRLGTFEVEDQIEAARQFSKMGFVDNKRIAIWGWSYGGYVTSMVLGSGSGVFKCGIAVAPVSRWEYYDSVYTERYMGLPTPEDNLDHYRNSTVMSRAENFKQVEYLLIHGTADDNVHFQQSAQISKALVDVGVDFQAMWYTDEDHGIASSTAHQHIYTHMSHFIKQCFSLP
quantity-name: IC50

>>> result("CCCCN(CCCC)Cc1nc2ccccc2c(=O)n1Cc1ccccc1C#N")
"6.78 µM"
>>> result("N#Cc1ccccc1Cn1c(CN2CCOCC2)nc2ccccc2c1=O")
"1.46 µM"
>>> result("CN(C)Cc1nc2ccccc2c(=O)n1Cc1ccccc1C#N")
"4.92 µM"
